Experiment: growth inhibitors of anaerobic choline-fed gram-negatives, minimal medium, absorbance (AID 1963822)
Conditions: Gram-negative bacterium anaerobic choline minimal medium, active compounds read low
Among all 55,000 compounds or so, about 90 (0.2%) were called active. The sample holds actives, similar compounds and a random draw of the others, so the mix is not that of the screen.
Quick reference for z-score among some compounds

{"COMPOUND": "C=CCSc1n[nH]c(NC(C)=O)n1", "z-score": 0.76}
{"COMPOUND": "CCC1(CC)Cc2ccccc2-c2[nH]c(=O)n(CC3=CCCO3)c(=O)c21", "z-score": 0.12}
{"COMPOUND": "CCOc1ccc(S(=O)(=O)NC(C)C)cc1-c1nc(C)no1", "z-score": 0.37}
{"COMPOUND": "CCOC(=O)c1cnc(SC(CC)C(=O)Nc2ccc(Br)cc2)nc1N (stereo not given)", "z-score": 0.81}
{"COMPOUND": "COc1ccc(C2CC(c3c(O)n(C)c(=O)n(C)c3=O)=NN2)cc1 (stereo not given)", "z-score": 0.56}
{"COMPOUND": "O=C(NCc1ccc2c(c1)OCO2)c1ccc(-c2noc(C3CC3)n2)cc1", "z-score": 0.36}
{"COMPOUND": "O=C(NC1CC1)c1snc(-c2ccccn2)c1NC(=O)C1CC1", "z-score": 0.58}
{"COMPOUND": "CCOc1ccc(CNC(=O)C2(NS(=O)(=O)c3cccc4cccnc34)CCCCC2)cc1", "z-score": 0.35}
{"COMPOUND": "CCOc1ccc(NC(=O)Nc2ccc(Cn3cnc(-c4nc(-c5ccc(Cl)cc5)no4)c3)cc2)cc1", "z-score": 0.25}
{"COMPOUND": "Cc1[nH]nc2c1C(C(=O)c1cccc(Cl)c1)CC(=O)N2 (stereo not given)", "z-score": 0.36}
{"COMPOUND": "CCc1ccc(NS(=O)(=O)c2cc(-c3nc(C(C)C)cs3)cs2)cc1", "z-score": -0.41}
{"COMPOUND": "Cn1c(=O)n(C)c2cc(CNCC(O)c3ccccc3)ccc21 (stereo not given)", "z-score": -0.37}
{"COMPOUND": "CC(C)c1nnc(-c2cc3ccccc3n2CC(=O)N(C(C)C)C(C)C)o1", "z-score": -0.44}
{"COMPOUND": "COc1ccc(-c2nc(SCC(=O)Oc3ccc(C)cc3C)n3[nH]c(=O)cc3n2)cc1", "z-score": -0.54}
{"COMPOUND": "COC(=O)Cn1nc2c(-c3nc(-c4ccc(Cl)cc4)no3)cccn2c1=O", "z-score": -0.55}
{"COMPOUND": "CN(C)C(=O)CN1C(=O)COc2ccc(C(=O)NCc3ccc4c(c3)OCO4)cc21", "z-score": 0.4}
{"COMPOUND": "COc1ccc(NC(=O)CSc2nc3ccccc3n2Cc2ncc(C)c(OC)c2C)cc1", "z-score": 0.8}
{"COMPOUND": "Cc1ccc(C2C3=C(CCCC3=O)Nc3ccccc3N2C(=O)c2ccccc2)cc1 (stereo not given)", "z-score": -0.78}
{"COMPOUND": "O=C(Nc1ccc(F)cc1)c1ccccn1", "z-score": -3.6}
{"COMPOUND": "O=C(CN(Cc1ccccc1)S(=O)(=O)c1ccc(Br)cc1)N1CCN(c2ccc(F)cc2)CC1", "z-score": 0.95}
{"COMPOUND": "C=CCn1c(=O)c(=O)n(Cc2ccc(C(=O)N3CCC(N4CCCCC4)CC3)cc2)c2ccccc21", "z-score": 0.52}
{"COMPOUND": "CCN(CCCNC(=O)c1cccn2c(=O)c3ccccc3nc12)c1cccc(C)c1", "z-score": 1.29}
{"COMPOUND": "COc1cccc(-n2ccnc2SCc2nc(-c3ccccc3)no2)c1", "z-score": 0.5}
{"COMPOUND": "CC(C)c1ccc(N2C(=O)c3cc4ccsc4n3CC2(C)C(=O)NC2CCCC2)cc1 (stereo not given)", "z-score": 0.43}
{"COMPOUND": "COc1cccc(N2C(=O)c3cc(C)nn3CC2(C)C(=O)NCc2ccccc2)c1 (stereo not given)", "z-score": 0.09}
{"COMPOUND": "Cc1ccc(OCc2nc3c4ccccc4ncn3n2)cc1", "z-score": 0.29}
{"COMPOUND": "Cc1nn(CC(=O)NCCc2c[nH]c3ccccc23)c(=O)c2noc(C)c12", "z-score": -1.18}
{"COMPOUND": "Cc1ccc2c(c1)c1c(n2CC(O)CNCc2ccccc2)CCCC1 (stereo not given)", "z-score": -2.96}
{"COMPOUND": "O=C(Cc1csc(NC(=O)Nc2ccc(Cl)cc2)n1)Nc1cccc(Cl)c1", "z-score": -2.04}
{"COMPOUND": "CC(=O)Nc1ccc(S(=O)(=O)N2CCN(Cc3nc4cccnc4n3-c3ccc(C)cc3)CC2)cc1", "z-score": 0.91}
{"COMPOUND": "Cc1nc(N2CCC(C(=O)N3CCOCC3)CC2)c2c(C)c(C)oc2n1", "z-score": -0.5}
{"COMPOUND": "COC(=O)c1cnc(N(C)C2CCCCC2)c2ccccc12", "z-score": 0.22}
{"COMPOUND": "CC(C)n1cnc(S(=O)(=O)N2CCC(C(=O)N3CCCC3)CC2)c1", "z-score": 0.57}
{"COMPOUND": "O=C(NCc1ccc(Cl)cc1)c1ccc(-n2nnc3cccnc32)cc1", "z-score": 0.42}
{"COMPOUND": "O=C(CSCc1nc2cccnc2n1C1CCCCC1)NCc1cccc(F)c1", "z-score": 0.62}
